- System: HeLa (cervical tumor)
- measurement-notes: MTT cell viability, HeLa
- Type: cell-based
- study-conditions: Homo sapiens, 24 h
- Text: In this study we used human cell culture of tumor origin—SH-SY5Y (neuroblastoma), HeLa (cervical tumor), Hep-2 (larynx carcinoma), A549 (adenocarcinomic human alveolar basal epithelial cells); and normal cell line Hek 293 (human embryonic kidneys)), provided by the Laboratory of Tumor Cell Genetics of the Scientific Research Institute of Carcinogenesis, N.N. Blokhin National Medical Research Center of Oncology, as well as the Institute of Cytology of the Russian Academy of Sciences. […]
outcome-measure: IC50 (µM)

Field: example entries. Status: answers known.
# compound, IC50 (µM)
rows = [
    ("C=C1CC[C@H]2C(CNCc3cn(Cc4cccc(OC)c4OC)nn3)C(=O)O[C@@H]2C2C(=C)CCC12 (stereo partly shown) [10c]", 79.6),
    ("COc1ccc(COCc2cn(CCNC[C@H]3C(=O)O[C@@H]4C[C@@]5(C)CCC[C@H](C)C5=C[C@@H]43)nn2)cc1OC", 81),
    ("COc1ccc(COCc2cn(CCNC[C@H]3C(=O)O[C@@H]4C[C@@]5(C)CCC[C@H](C)C5=C[C@@H]43)nn2)cc1", 55.1),
    ("COc1cccc(Cn2cc(CNCC3C(=O)O[C@@H]4C[C@@]5(C)CCC[C@H](C)C5=C[C@H]34)nn2)c1OC (stereo partly shown) [11c]", 88.2),
]

P. C=C1CC[C@H]2[C@H](CNCCn3cc(COCc4ccc(OC)cc4)nn3)C(=O)O[C@@H]2C2C(=C)CCC12 (stereo partly shown)
Q. COc1ccc(Cn2cc(CNCC3C(=O)O[C@@H]4C[C@@]5(C)CCC[C@H](C)C5=C[C@H]34)nn2)cc1OC (stereo partly shown) [11d]
R. C=C1CC[C@H]2C(CNCc3cn(Cc4ccc(OC)c(OC)c4)nn3)C(=O)O[C@@H]2C2C(=C)CCC12 (stereo partly shown) [10d]
Sort (3 compounds) by IC50: min first. Lab note: final answer is the ordered label list. R, P, Q

====

- Test system: HeLa (cervical tumor)
- measurement-notes: MTT cell viability, HeLa
- Assay type: cell-based
- study-conditions: Homo sapiens, 24 h
outcome-measure: IC50 (µM)

I. C=C1CC[C@H]2C(CNCc3cn(Cc4ccc5c(c4)OCO5)nn3)C(=O)O[C@@H]2C2C(=C)CCC12 (stereo partly drawn) [10a]
II. C[C@H]1CCC[C@]2(C)C[C@H]3OC(=O)C(CNCc4cn(Cc5ccc6c(c5)OCO6)nn4)[C@H]3C=C12 (stereo partly drawn) [11a]
III. C[C@H]1CCC[C@]2(C)C[C@H]3OC(=O)C(CNCCn4cc(COCc5ccc6c(c5)OCO6)nn4)[C@H]3C=C12 (stereo partly drawn)
# descending IC50 order for the listed compounds Lab note: final answer is the ordered label list. II, III, I

A. C=C1CCC2C(CNCCn3cc(COCc4ccc5c(c4)OCO5)nn3)C(=O)OC2C2C(=C)CCC12 (stereo not drawn)
B. C=C1CC[C@H]2C(CNCc3cn(Cc4ccc(OC)cc4)nn3)C(=O)O[C@@H]2C2C(=C)CCC12 (stereo partly drawn) [10b]
Please indicate which has the smaller reported IC50: A , or B . Kindly state the label of the option you pick. B

I. C=C1CC[C@H]2[C@H](CNCCn3cc(COCc4cccc(OC)c4OC)nn3)C(=O)O[C@@H]2C2C(=C)CCC12 (stereo partly drawn)
II. COc1cccc(COCc2cn(CCNC[C@H]3C(=O)O[C@@H]4C[C@@]5(C)CCC[C@H](C)C5=C[C@@H]43)nn2)c1OC
Please indicate which has the smaller reported IC50: I , or II . Kindly state the label of the option you pick. II

Reference for the values: paper PMC9738796
